# Experimental System: human RORγt ligand binding domain (RORγt LBD) (Homo sapiens (Human), UniProt P51449)
# Sequence (P51449 other isoform, or with tags, fused parts or gaps): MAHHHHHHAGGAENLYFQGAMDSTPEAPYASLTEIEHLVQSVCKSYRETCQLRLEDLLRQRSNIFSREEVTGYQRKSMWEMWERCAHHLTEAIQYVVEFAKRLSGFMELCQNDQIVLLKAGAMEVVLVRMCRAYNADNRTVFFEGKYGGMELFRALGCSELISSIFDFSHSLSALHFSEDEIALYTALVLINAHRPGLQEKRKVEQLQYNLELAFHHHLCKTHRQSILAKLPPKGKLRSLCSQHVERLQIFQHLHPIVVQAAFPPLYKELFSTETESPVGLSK
# Experiment Notes: RORγt ThermoFluor® assay (thermal shift binding)
# Experimental Conditions: ThermoFluor® Assay, Kd
pKd: −log10 of the molar value. Where a name gives a salt, the structure may show the parent alone.
Test Readout: pKd

Some molecules with known pKd results, for comparison:
- Molecule: "CCn1nc(C(=O)NC[C@]2(O)CC[C@@H](S(N)(=O)=O)CC2)c(Cl)c1-c1ccc(C[C@H](C)C(F)(F)F)cc1OC(F)F (single isomer, unassigned)"
  Test Readout: "pKd"
  Reported Value: 8.72
- Molecule: "CCn1nc(C(=O)NC[C@]2(CO)CC[C@@H](S(C)(=O)=O)CC2)c(Cl)c1-c1ccc(N[C@H](C)C(F)(F)F)cc1OC (relative stereo)"
  Test Readout: "pKd"
  Reported Value: 7.96
- Molecule: "CCn1nc(C(=O)NC[C@]2(O)CC[C@@H](S(C)(=O)=O)C[C@H]2O)c(C)c1-c1ccc(C[C@@H](C)C(F)(F)F)cc1OC(F)F (stereo in doubt)"
  Test Readout: "pKd"
  Reported Value: 8.62
- Molecule: "CCn1nc(C(=O)NC[C@@H]2CC[C@@H](S(C)(=O)=O)CO2)c(Cl)c1-c1ccc(CC(C)(C)C(F)(F)F)cc1OC(F)F (single isomer, unassigned)"
  Test Readout: "pKd"
  Reported Value: 9.72
- Molecule: "CCn1nc(C(=O)NC[C@H]2CC[C@H](S(N)(=O)=O)CC2)c(Cl)c1-c1ccc(C[C@H](C)C(F)(F)F)cc1OC(F)F (single isomer, unassigned)"
  Test Readout: "pKd"
  Reported Value: 9.16

(I) CCn1nc(C(=O)NC[C@H]2CC[C@H](S(=O)(=O)CC)CC2)c(Cl)c1-c1ccc(CC(C)(C)C(F)(F)F)cc1OC(F)F
(II) CCn1nc(C(=O)NC[C@@H]2CC[C@H](S(C)(=O)=O)CN2)c(Cl)c1-c1ccc(CC(C)(C)C(F)(F)F)cc1OC(F)F (stereo in doubt)
Exercise: Endpoint returns whichever of I and II has the numerically higher pKd. Please reply using the label of the selected record.
Solution: I
(I: 9.70, II: 7.13)

(A) Cn1nc(C(=O)NC[C@]2(O)CC[C@@H](S(C)(=O)=O)C[C@H]2O)c(Cl)c1-c1ccc(CCCC(F)(F)F)cc1OC(F)F (stereo in doubt)
(B) CCn1nc(C(=O)NC[C@]2(O)CC[C@@H](S(C)(=O)=O)CC2)c(Cl)c1-c1c(F)cc(C[C@@H](C)C(F)(F)F)cc1F (single isomer, unassigned)
(C) CCn1nc(C(=O)NC[C@H]2CC[C@H](S(C)(=O)=O)CC2)c(Cl)c1-c1ccc(C[C@@H](C)C(F)(F)F)cc1OC(F)F (single isomer, unassigned)
(D) CCn1nc(C(=O)NC[C@]2(O)CC[C@@H](S(C)(=O)=O)CC2)c(Cl)c1-c1ccc(C[C@@H](C)C(F)(F)F)cc1OC(F)F (single isomer, unassigned)
(E) CCn1nc(C(=O)NC[C@]2(O)CC[C@@H](S(C)(=O)=O)C[C@H]2O)c(Cl)c1-c1ccc(C[C@@H](C)C(F)(F)F)cc1OC(F)F (stereo in doubt)
Exercise: Number of molecules to sort: 5. Sort criterion: pKd, ascending. As an answer, provide the labels arranged in the order called for.
Solution: A, B, E, D, C
(A: 7.41, B: 7.85, E: 8.70, D: 8.96, C: 9.34)

(1) CCn1nc(C(=O)NC[C@H]2CC[C@H](S(C)(=O)=O)CN2)c(Cl)c1-c1ccc(CC(C)(C)C(F)(F)F)cc1OC(F)F (stereo in doubt) [Example 9, hydrobromide]
(2) CCn1nc(C(=O)NC[C@@]2(O)CC[C@H](S(C)(=O)=O)C[C@@H]2O)c(Cl)c1-c1ccc(C[C@H](C)C(F)(F)F)cc1OC(F)F (stereo in doubt)
Exercise: // compare: 1 vs 2 , metric pKd, want the smaller State the label of the item chosen.
Solution: 2
(2: 8.46, 1: 8.80)

(1) CCn1nc(C(=O)NC[C@H]2CC[C@H](S(C)(=O)=O)C[NH+]2CC(=O)ON)c(Cl)c1-c1ccc(CC(C)(C)C(F)(F)F)cc1OC(F)F (stereo in doubt) [Example 64, Trifluoroacetic Acid Salt]
(2) CCn1nc(C(=O)NC[C@]2(O)CC[C@@H](S(C)(=O)=O)CC2)c(Cl)c1-c1ccc(C[C@H](C)C(F)(F)F)cc1OC(F)F (single isomer, unassigned)
(3) CCn1nc(C(=O)NC[C@]2(O)CC[C@@H](S(C)(=O)=O)CC2)c(Cl)c1-c1c(F)cc(C[C@H](C)C(F)(F)F)cc1F (single isomer, unassigned)
(4) CCn1nc(C(=O)NC[C@H]2CC[C@H](S(N)(=O)=O)CC2)c(Cl)c1-c1ccc(CC(C)(C)C(F)(F)F)cc1OC(F)F
Exercise: Arrange by pKd, high to low. Write the labels in rank order as requested.
Solution: 4, 2, 1, 3
(4: 9.60, 2: 9.00, 1: 8.49, 3: 7.80)
